Biological target: T1, 4H2873-AA
T1 chain: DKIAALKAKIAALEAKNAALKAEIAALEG
Test: two-hybrid library CCmax;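 further: natural log of median RNA to DNA barcode read ratio; higher means stronger binding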
Settings: mean of both orientations
EXPERIMENTAL READOUT: interaction score

- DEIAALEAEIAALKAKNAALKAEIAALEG [4H121-AA]: 0.239

Can you share its interaction score? I mean this binder: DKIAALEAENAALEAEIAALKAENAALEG [4H2187-AA]
0.406

Can you share its interaction score? I mean this binder: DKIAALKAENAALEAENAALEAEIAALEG [4H2705-AA]
-1.27

Can you share its interaction score? I mean this binder: DEIAALEAKIAALEAENAALEAKIAALKG [4H278-AA]
1.66

Can you share its interaction score? I mean this binder: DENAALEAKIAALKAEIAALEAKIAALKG [4H1350-AA]
1.38

Can you share its interaction score? I mean this binder: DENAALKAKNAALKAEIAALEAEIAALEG [4H1985-AA]
-1.18
